- assayedTarget: Fes (UniProt P07332)
- Sequence (P07332 whole entry, looked up): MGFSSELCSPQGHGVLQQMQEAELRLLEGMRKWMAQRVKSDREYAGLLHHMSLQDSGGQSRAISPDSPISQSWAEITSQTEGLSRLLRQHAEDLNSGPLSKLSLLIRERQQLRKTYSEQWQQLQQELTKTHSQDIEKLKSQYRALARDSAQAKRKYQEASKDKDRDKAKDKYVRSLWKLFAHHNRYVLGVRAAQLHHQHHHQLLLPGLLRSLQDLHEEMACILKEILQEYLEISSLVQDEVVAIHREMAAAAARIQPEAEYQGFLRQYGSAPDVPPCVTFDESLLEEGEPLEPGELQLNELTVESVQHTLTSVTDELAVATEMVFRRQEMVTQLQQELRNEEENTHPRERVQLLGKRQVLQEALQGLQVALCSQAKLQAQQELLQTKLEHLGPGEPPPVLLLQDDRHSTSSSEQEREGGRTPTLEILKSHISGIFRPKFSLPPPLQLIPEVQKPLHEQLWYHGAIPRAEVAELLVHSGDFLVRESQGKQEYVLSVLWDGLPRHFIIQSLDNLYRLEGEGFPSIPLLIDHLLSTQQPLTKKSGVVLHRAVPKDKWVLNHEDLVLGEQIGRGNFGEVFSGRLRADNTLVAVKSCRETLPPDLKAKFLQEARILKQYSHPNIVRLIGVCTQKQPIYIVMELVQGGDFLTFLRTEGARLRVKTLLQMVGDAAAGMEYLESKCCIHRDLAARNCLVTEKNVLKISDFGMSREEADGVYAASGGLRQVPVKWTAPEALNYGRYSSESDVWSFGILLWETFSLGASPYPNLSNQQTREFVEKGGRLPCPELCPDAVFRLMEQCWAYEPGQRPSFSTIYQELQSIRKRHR
- method: phosphorylation enrichment, bacterial display (enrichment ratio); higher = better substrate or ligand; peptides without Tyr show the background;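 note: 11-residue human phosphosite peptides and single-mutation variants displayed on the E. coli surface, counted by deep sequencing, each peptide's frequency after selection divided by its frequency in the unselected input library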;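 note: frequency after pTyr selection over input frequency; kinase dosed for 20-30% of maximal phosphorylation in three min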
Use 0.9 as the dividing line for phosphorylation enrichment, with the line itself on the rule met side and lower values as rule not met.

Example entries begin here.
- EPNSRYTFKLE [USH2A_Y3745_YF]: rule met
- SKGFAYVHFDS [PABPC5_Y149_YF]: rule not met
- ALKKPYSVLFK [RPF2_Y59_G60S_YF]: rule met

Record SWKRRYFLLRA [APBB1IP_Y331] ; criterion: phosphorylation enrichment no lower than 0.9. Met?
rule not met

// inclusive: phosphorylation enrichment at least 0.9? input: LPPREYVVVPS [CAPN1_Y494_G492R]
rule met

Check if phosphorylation enrichment >= 0.9 (inclusive). Item: KMATAYIRRMS [BCO1_Y264]
rule not met

* * *

- assayedTarget: Fes (UniProt P07332)
- method: phosphorylation enrichment, bacterial display (enrichment ratio); higher = better substrate or ligand; peptides without Tyr show the background
Response key: y means phosphorylation enrichment >= 1; n means phosphorylation enrichment < 1.

- YENGEYIIRQG [PRKG1_Y247]: y

Given the entry VVEFGYEFFAK [PPP1CB_Y254_D252Y_YF] , answer whether its phosphorylation enrichment meets or surpasses 1.
y

Reported phosphorylation enrichment reaches at least 1 for HHFAAYFQQGD [GPI_Y351_R347H] ?
y

Would you say YRGYSYDDIPD [TMEM230_Y112] shows phosphorylation enrichment at minimum 1?
n

Would you say KLPYPYDDPFS [GPX2_Y127] shows phosphorylation enrichment at minimum 1?
y

Identify whether the reported phosphorylation enrichment of the following sequence is 1 or greater: IVAREYFSDAD [CAMK2A_Y106_E109D_YF]
n

Exam item: decide whether the reported phosphorylation enrichment for HCHEGYVLHGA [SVEP1_Y2921_I2922V] is at least 1.
y

Textbook exercise: given the entry QEIATYRPLLE [KRT14_Y415_R417P] , state whether its phosphorylation enrichment is greater than or equal to 1.
y

Please tell me: is the sequence GPRSLYNGLVA [UCP2_Y79] at or over 1 in terms of phosphorylation enrichment?
n

# check: phosphorylation enrichment of FGSGNYNVFGN [HNRNPA2B1_Y300_D302V_YF] is greater than or equal to 1
n

* * *

Each item that follows carries a reported phosphorylation enrichment.
- assayedTarget: Jak2 (UniProt O60674)
- Sequence (O60674 whole entry, looked up): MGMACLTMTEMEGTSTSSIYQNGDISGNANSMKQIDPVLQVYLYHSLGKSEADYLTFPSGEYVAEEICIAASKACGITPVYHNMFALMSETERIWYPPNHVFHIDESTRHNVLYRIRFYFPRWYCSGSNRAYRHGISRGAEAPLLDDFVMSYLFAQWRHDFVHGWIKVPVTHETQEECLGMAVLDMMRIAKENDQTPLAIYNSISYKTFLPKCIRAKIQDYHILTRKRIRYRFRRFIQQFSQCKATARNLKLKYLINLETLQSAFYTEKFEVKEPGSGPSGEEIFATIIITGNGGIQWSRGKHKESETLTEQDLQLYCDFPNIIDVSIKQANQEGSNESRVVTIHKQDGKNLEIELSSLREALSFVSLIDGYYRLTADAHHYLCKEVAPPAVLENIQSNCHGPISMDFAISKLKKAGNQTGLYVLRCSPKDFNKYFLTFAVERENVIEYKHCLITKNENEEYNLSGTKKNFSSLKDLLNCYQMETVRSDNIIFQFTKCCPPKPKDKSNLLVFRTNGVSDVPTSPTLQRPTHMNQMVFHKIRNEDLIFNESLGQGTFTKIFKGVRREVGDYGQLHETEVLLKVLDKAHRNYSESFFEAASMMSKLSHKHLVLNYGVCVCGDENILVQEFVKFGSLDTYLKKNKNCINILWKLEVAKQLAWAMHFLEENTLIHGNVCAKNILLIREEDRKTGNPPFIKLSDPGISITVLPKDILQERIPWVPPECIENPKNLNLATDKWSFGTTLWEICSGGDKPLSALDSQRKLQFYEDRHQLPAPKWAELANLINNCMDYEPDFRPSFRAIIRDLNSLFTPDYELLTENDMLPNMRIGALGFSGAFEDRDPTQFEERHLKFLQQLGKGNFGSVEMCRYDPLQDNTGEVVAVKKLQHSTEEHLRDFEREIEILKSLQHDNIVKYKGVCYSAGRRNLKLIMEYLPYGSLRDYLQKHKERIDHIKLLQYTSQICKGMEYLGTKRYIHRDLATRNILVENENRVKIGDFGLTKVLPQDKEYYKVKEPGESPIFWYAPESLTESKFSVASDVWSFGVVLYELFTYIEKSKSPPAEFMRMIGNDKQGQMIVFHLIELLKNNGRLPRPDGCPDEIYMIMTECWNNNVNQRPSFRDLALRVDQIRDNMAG
- method: phosphorylation enrichment, bacterial display (enrichment ratio); higher = better substrate or ligand; peptides without Tyr show the background
Returns: the value as a bare number; no unit string appended.

Some entries whose results are on file:
* FQRLQYIKQLG [SAMHD1_Y146_R145Q] | 0.934
* SIKHKYVTALF [KCNH2_Y611_D609H_YF] | 0.694
* FGSGNYNVFGN [HNRNPA2B1_Y300_D302V_YF] | 0.449
* KLQKFYRQNPD [EHHADH_Y683_YF] | 0.393
* ISHVAYRVLGK [TRRAP_Y892] | 0.426
* EFDRLYEEFTR [PIK3R1_Y467_YF] | 1.01

Given the entry AGADGYGYLAP [FOXL2_Y186] , report its measured phosphorylation enrichment.
0.538

For the sequence SLIDGYYRLTE [JAK2_Y372_A377E] , what phosphorylation enrichment is on record?
5.79

* * *

- assayedTarget: Hck (UniProt P08631)
- Sequence (P08631 whole entry, looked up): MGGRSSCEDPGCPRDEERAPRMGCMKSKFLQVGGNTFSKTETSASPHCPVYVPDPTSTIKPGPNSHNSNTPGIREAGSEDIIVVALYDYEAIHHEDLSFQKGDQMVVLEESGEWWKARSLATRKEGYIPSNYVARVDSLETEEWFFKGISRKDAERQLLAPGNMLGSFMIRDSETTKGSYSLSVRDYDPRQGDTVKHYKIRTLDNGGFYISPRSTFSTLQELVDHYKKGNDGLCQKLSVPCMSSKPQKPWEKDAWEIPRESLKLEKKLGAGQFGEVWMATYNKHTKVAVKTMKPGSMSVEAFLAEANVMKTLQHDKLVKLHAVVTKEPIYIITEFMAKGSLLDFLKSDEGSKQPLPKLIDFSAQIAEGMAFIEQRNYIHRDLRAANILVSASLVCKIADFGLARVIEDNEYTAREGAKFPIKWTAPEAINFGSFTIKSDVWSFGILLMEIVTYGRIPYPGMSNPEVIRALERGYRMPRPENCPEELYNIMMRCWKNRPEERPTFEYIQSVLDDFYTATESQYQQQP
- method: phosphorylation enrichment, bacterial display (enrichment ratio); higher = better substrate or ligand; peptides without Tyr show the background
assayEndpoint: phosphorylation enrichment

Sample answers from the record:
• VYYDLYGGEKF [PTPN11_Y66_D61V] = 6.07
• AAQNCYKVTNG [TPI1_Y105] = 0.408
• QRRLVYYEGGA [RYR1_Y245] = 0.421
• CENCHYPILPL [LCK_Y25_V28L] = 0.746
• SRDTCYLVLAV [AMH_Y195_R194C] = 0.651

What measured phosphorylation enrichment goes with TLKVGYKEKQR [EPHA3_Y659_T660K] ?
0.328

May I ask what phosphorylation enrichment has been recorded for AEQDWYHGAIP [FER_Y461] ?
1.22

Need phosphorylation enrichment of TPGPNYRPGFN [USH2A_Y463_YF] , thanks.
0.586

Reported phosphorylation enrichment for QEMMEYRHQIQ [DES_Y324] : what is it?
0.902

Which phosphorylation enrichment is reported for this sequence? FFRDGCMPRQF [GSS_Y270_Y270C_YF]
0.497

If you can, please state the reported phosphorylation enrichment value of AKNKDYMSFIR [GNE_Y197_I200F] .
0.946

Name the recorded phosphorylation enrichment for IKRIDYEFVEM [ADA_Y84_A83D] .
0.477

* * *

Parameter phosphorylation enrichment: see the listing below.
- assayedTarget: Jak2 (UniProt O60674)
- method: phosphorylation enrichment, bacterial display (enrichment ratio); higher = better substrate or ligand; peptides without Tyr show the background
Answer with a bare number; do not write a unit.

Recorded results for 2 sequences are shown here.
- LQPNNYQFCGG [CSF1R_Y969]: 1.24
- PVRIAYDRPRG [SUGP2_Y985]: 1.44

Item KRFRIYHLAIS [BRCA2_Y3009_T3013I_YF] has what recorded phosphorylation enrichment?
0.86

Would you kindly share the measured phosphorylation enrichment for VYAANYYKLLG [ROR2_Y645_D644N] ?
3.19

Would you mind telling me what phosphorylation enrichment value was observed for KKHFSYAWPFY [BRDT_Y291] ?
0.647

Please report the recorded phosphorylation enrichment for NHFKIYNPCAE [PTEN_Y68_L70P_YF] .
0.807

Which phosphorylation enrichment reading was recorded for the sequence RGKLFYQEVPA [METTL11B_Y76_A72G] ?
0.649

Given the sequence KLFFHYDPKLC [INSR_Y457_N458D] , what is its reported phosphorylation enrichment?
0.961

Returns the measured phosphorylation enrichment for the input sequence. Input: RLSVDCGKKSK [TUBA4A_Y161_Y161C]
1.1

Sample AGKEEYSAMRD [HRAS_Y64_Q61K] — what was its phosphorylation enrichment?
0.644

# query: phosphorylation enrichment of entry VRRRSYSAGNA [KANK1_Y324_K321R]
0.471

Consider the sequence shown here: VDGSLYKTHPQ [HK1_Y417] What is its recorded phosphorylation enrichment?
0.409

phosphorylation enrichment for LHSEAYLKYNE [PBRM1_Y1610_I1614N] ?
0.744

Which phosphorylation enrichment is reported for this sequence? LRWREYQRQDY [PRKRIP1_Y90_R87W]
0.997

Requested field: phosphorylation enrichment. Item: GVKLTYGDAQS [SLC28A1_Y404_N409S]
0.46

I'd like to know its phosphorylation enrichment. The sequence in question is KELANYFKLHH [AK7_Y390_YF]
1.68

* * *

- assayedTarget: FGFR3 (UniProt P22607)
- Sequence (P22607 whole entry, looked up): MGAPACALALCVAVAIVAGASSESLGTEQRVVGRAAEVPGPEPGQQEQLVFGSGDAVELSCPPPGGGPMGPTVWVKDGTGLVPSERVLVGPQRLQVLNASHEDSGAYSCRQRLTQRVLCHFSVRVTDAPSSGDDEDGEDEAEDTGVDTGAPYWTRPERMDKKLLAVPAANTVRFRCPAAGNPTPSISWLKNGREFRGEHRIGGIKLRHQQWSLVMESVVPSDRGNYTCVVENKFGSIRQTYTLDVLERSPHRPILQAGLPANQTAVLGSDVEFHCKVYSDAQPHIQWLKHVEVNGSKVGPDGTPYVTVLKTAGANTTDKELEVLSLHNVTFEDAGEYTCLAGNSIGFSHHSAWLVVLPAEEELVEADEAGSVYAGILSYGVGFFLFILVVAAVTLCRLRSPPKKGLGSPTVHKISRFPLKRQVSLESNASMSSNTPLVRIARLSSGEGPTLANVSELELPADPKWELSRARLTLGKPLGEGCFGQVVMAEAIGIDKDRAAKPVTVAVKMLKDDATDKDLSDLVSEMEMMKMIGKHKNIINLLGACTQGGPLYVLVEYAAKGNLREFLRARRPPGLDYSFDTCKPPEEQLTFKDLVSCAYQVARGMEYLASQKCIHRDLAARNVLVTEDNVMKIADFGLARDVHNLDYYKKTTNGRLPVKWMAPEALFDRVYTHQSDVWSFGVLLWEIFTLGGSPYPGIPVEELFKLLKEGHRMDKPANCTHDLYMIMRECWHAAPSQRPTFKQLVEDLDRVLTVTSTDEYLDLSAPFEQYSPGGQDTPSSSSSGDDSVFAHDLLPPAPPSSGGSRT
- method: phosphorylation enrichment, bacterial display (enrichment ratio); higher = better substrate or ligand; peptides without Tyr show the background
Mark NO for phosphorylation enrichment values under 0.6, and YES for everything at or above.

Look over these answered cases.
* DERQPYAHMNG [IGF1R_Y1346] | NO
* KELANYFKLHH [AK7_Y390_YF] | YES
* LFSINYLHFGD [KDM4C_Y201_E206D_YF] | YES
* FGDTPYIPFRD [CDC14C_Y132] | YES
* KRGVSYILKLA [SERPINB1_Y84_A82V] | YES
* CTNELYMMMRD [FGFR1_Y730] | YES
* DEFLEHRRIVG [FAM221A_Y20_Y20H_YF] | NO
* VDGSLYKTHPQ [HK1_Y417] | NO

Hi, just wondering whether GPRSLYNGLVA [UCP2_Y79] shows phosphorylation enrichment of 0.6 or higher.
NO

phosphorylation enrichment >= 0.6 for IITVHYVLEES [RYR2_Y4559_A4556T] ?
YES

Dear colleague, could you confirm whether EGNERYEGYCV [GRIA3_Y451] has phosphorylation enrichment at or above 0.6?
YES

Determine whether measured phosphorylation enrichment meets or exceeds 0.6 for AVISVYDLVAV [PSEN1_Y256]
NO

Textbook exercise: given the entry QSVEPYTKQQL [STAT3_Y640] , state whether its phosphorylation enrichment is greater than or equal to 0.6.
NO

Could you tell me if the measured phosphorylation enrichment of EPSVPYRGMVF [GLI3_Y104_T107M] reaches 0.6 or more?
NO

I'd appreciate it if you could say whether EVTQDYGLDPK [FH_Y110_N107T] has phosphorylation enrichment at least equal to 0.6.
YES

Please indicate if the recorded phosphorylation enrichment for RQGKDYIGAIP [KDR_Y951_V952I] meets or exceeds 0.6.
NO

Confirm if phosphorylation enrichment reported for the sequence APNEFYDGDHD [HDAC3_Y414] is 0.6 or above.
YES

Given the entry TFYQMYDKGLV [IARS2_Y231] , answer whether its phosphorylation enrichment meets or surpasses 0.6.
YES

Threshold query (phosphorylation enrichment >= 0.6) on VNLVLHLSIAK [FBXO15_Y496_Y496H]
YES

Determine whether this sequence has phosphorylation enrichment no lower than 0.6: EREYKYDAHNY [OAT_Y50_G51D]
NO

Could you please find out whether QQLQGYVPSNY [FRK_Y99_I100V] has phosphorylation enrichment that meets 0.6 or exceeds it?
YES

Values were extracted from the supplement of paper PMC10065799.
